Data provenance: patent US12084462B2

Below, each of the compounds is paired with its reported IC50 value.
# Test system: MOLM14
# methodNotes: Proliferation assay (spheroid assay) MOLM14
# Format: cell-based, human
# recordedConditions: Homo sapiens, MOLM-14, MOLM14; averaged values; read-out: Spheroid assay MOLM14 (IC50 (μM))

compound | IC50
C[C@@H](c1cnn(C)c1)N1CC2(CCN(c3ncnc4sc(CC(F)(F)F)cc34)C2)C1 [Compound 199] | > 15 µM
CC(c1cnn(C)c1)N1CC2(CCN(c3ncnc4sc(CC(F)(F)F)cc34)C2)C1 (stereo not drawn) [Compound 197] | > 15 µM
Cn1cc2c(n1)CCCC2N1CC2(CCN(c3ncnc4sc(CC(F)(F)F)cc34)C2)C1 (stereo not drawn) [Compound 133] | > 15 µM
